tested_target: T1, human PD-1 (human, UniProt Q15116 25-167)
T1 construct: The immunogen was PD1/Fc (Leu25-Gln167 fused to human IgG1 Pro100-Lys330); also called huPD-1; hPD-1
T1 sequence (Q15116 25-167 limits assumed): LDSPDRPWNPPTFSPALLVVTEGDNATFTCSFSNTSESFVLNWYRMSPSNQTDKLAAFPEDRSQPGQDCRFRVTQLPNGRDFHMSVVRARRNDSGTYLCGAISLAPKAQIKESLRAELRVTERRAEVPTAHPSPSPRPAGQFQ
assay_comment: SPR, multiple-cycle, crude Fab from E. coli; antigen form not stated
test_readout: Kd
The answer should read as a number with its unit following.

# Kd of Fab 5 (Fab, V domains shown, Crude Fab from E. coli; also called PD1-BM VL-I11V) VH: EVQLVESGGGLVQPGGSLRLSCAASGFVFSRYDMAWVRQTPGKGLEWVAFISGGGSNTYYPDTVKGRFTISRDNSKNTLYLQMNSLRAEDTAVYYCISPYYYAMEYWGQGTTVTVSS VL: DIQMTQSPSSVSTSVGDRVTITCKASQDVDTAVAWYQQKPGKSPKLLIHWASTRHTGVPSRFSGSGSGTDFTLTLSSVQPEDLADYFCQQYSTFPWTFGGGTKLEIK = 0.34 nM

# Kd of Fab 8 (Fab, V domains shown, Crude Fab from E. coli; also called PD1-BM VL-H49Y) VH: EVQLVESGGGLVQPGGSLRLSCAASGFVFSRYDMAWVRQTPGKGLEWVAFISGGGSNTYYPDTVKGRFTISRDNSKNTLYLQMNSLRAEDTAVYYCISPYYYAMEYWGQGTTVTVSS VL: DIQMTQSPSSISTSVGDRVTITCKASQDVDTAVAWYQQKPGKSPKLLIYWASTRHTGVPSRFSGSGSGTDFTLTLSSVQPEDLADYFCQQYSTFPWTFGGGTKLEIK = 0.57 nM

# Kd of Fab 14 (Fab, V domains shown, Crude Fab from E. coli; also called PD1-BM VL-L104V) VH: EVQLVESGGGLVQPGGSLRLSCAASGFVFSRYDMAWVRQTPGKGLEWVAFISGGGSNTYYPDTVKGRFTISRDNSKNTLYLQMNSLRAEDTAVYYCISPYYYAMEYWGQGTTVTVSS VL: DIQMTQSPSSISTSVGDRVTITCKASQDVDTAVAWYQQKPGKSPKLLIHWASTRHTGVPSRFSGSGSGTDFTLTLSSVQPEDLADYFCQQYSTFPWTFGGGTKVEIK = 0.68 nM

Cited source: patent US20190330346A1
